# Tested on: OVCAR-4
# assay.details: NCI tumour cell line growth inhibition, 48 h
Activity calls are given as the source filed them. Cut-off read from the data, not from the text of the source: active = GI50 up to about 1.1 µM and inactive = higher. Peptide text beside a SMILES is read from it. * marks the point of attachment. Cbz = O=C(OCc1ccccc1)*
Labels: active, inactive

compound	class
CC(=O)OC1=C2CC3(C)OC(=O)CC(C)(C)C3=CC=C2C=C(C(C)C)C1=O (centres undefined)	active
CC(C)=C1C2CC3(C)CCC2(C)CCC13.CC1=CCC2C3(C)CCC2(C(C)C)C1C3 (centres undefined)	inactive
[O-][n+]1cc(SCc2ccccc2)ncc1SCc1ccccc1	inactive
CC1OC(O[C@H]2CC[C@]3(C)[C@H]4CC=C5[C@@H]6[C@@H](C)[C@H](C)CC[C@]6(C(=O)OC6OC(CO)C(O)C(O)C6O)CC[C@@]5(C(=O)O)[C@]4(C)CC[C@H]3C2(C)C)C(O)C(O)C1O (some centres undefined)	inactive
NS(=O)(=O)c1ccc(/N=N/c2ccc(O)c(O)c2)cc1	inactive
CC(C)(C)OC(=O)NC(CCC(=O)OCc1ccccc1)C(=O)NCCCO (centres undefined)	inactive
O=C(O)CCC(NC(=O)OCc1ccccc1)C(=O)NC(Cc1c[nH]cn1)C(=O)O (stereo not drawn) (Cbz-Glu-His-OH; configuration not given here)	inactive
COC(=O)c1cc(C)c(C)c2c1NC(=O)CNC2=O	inactive
COc1ccc([C@@H]2CC(=O)N2)cc1	inactive
COc1ccc(C(SCC(N)C(=O)O)(c2ccc(OC)cc2)c2ccc(OC)cc2)cc1 (centres undefined)	inactive
Cc1ccc(Nc2nc(=O)[nH]c(=O)[nH]2)cc1N=[N+]=[N-]	inactive
N#Cc1ccccc1NC(=O)/C(=N\NC(=O)c1ccncc1)C(c1cnc2ccc([N+](=O)[O-])cc2n1)[N+](=O)[O-] (centres undefined)	inactive
Clc1cc2c(cc1Cl)CC(NCCN1CCCC1)CC2 (centres undefined)	inactive
CN(C)CCCNC(=O)N/N=C/c1cccc([N+](=O)[O-])c1	inactive
